IC50 reference
assay_system: STAT6 (Homo sapiens, UniProt P42226)
Construct: Recombinant STAT6 protein (STAT6(W123-T658))
Sequence (P42226 123-658): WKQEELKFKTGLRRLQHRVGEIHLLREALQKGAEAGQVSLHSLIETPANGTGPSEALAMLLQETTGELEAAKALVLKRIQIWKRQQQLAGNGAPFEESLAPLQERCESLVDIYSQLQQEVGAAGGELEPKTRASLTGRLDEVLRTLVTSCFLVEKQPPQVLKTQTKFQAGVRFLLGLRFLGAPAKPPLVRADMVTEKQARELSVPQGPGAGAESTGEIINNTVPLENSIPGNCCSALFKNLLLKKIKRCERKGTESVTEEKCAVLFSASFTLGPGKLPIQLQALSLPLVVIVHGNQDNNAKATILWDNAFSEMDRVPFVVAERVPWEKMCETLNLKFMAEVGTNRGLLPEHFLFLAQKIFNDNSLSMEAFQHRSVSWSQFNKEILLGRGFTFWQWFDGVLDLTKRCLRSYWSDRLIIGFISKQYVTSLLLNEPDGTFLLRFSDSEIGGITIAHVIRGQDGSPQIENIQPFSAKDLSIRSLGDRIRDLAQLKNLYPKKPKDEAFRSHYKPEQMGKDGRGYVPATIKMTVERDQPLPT
protocol_description: STAT6 Fluorescence Polarization (FP) Assay

| compound | IC50 |
| --- | --- |
| O=C1CCC(c2ccc(OCCOCCOc3ccncc3C3CN(C(=O)[C@@H]4CC[C@@H]5CCC[C@H](NC(=O)c6cc7cc(C(F)(F)P(=O)(O)O)ccc7s6)C(=O)N54)C3)cc2)C(=O)N1 (stereo partly drawn) | 3 to 30 µM |
| O=C(COc1cccc2c1C(=O)N(C1CCC(=O)NC1=O)C2=O)NCCOCCOCCC(=O)NC1(c2ccccn2)CN(C(=O)[C@@H]2CC[C@H]3CCCC[C@H](NC(=O)c4cc5cc(C(F)(F)P(=O)(O)O)ccc5s4)C(=O)N32)C1 (stereo partly drawn) | 3 to 30 µM |
| O=C1CCC(N2Cc3c(C#CCCCCCCn4ccc([C@@H]5CN(C(=O)[C@@H]6CC[C@@H]7CCCC[C@H](NC(=O)c8cc9cc(C(F)(F)P(=O)(O)O)ccc9s8)C(=O)N76)C6(CC6)C5)cc4=O)cccc3C2=O)C(=O)N1 (stereo partly drawn) | 0.3 to 3 µM |
| O=C1CCC(n2c(=O)[nH]c3cc(N4CCC(n5ccc([C@@H]6CN(C(=O)[C@@H]7CC[C@@H]8CCCC[C@H](NC(=O)c9cc%10cc(C(F)(F)P(=O)(O)O)ccc%10s9)C(=O)N87)C7(CC7)C6)cc5=O)CC4)ccc32)C(=O)N1 (stereo partly drawn) | 0.3 to 3 µM |
| O=C1CCC(c2ccc(OCCCCCOc3cc([C@@H]4CN(C(=O)[C@@H]5CC[C@@H]6CCCC[C@H](NC(=O)c7cc8cc(C(F)(F)P(=O)(O)O)ccc8s7)C(=O)N65)C5(CC5)C4)ccn3)cc2)C(=O)N1 (stereo partly drawn) | 0.3 to 3 µM |

As a next step, examine the compound that follows.
Prompt: GET /values?readout=IC50&system=STAT6 (Homo sapiens, UniProt P42226)&item= O=C(COc1cccc2c1C(=O)N(C1CCC(=O)NC1=O)C2=O)NCCOCCOCC(=O)NC1(c2ccccn2)CN(C(=O)[C@@H]2CC[C@H]3CCCC[C@H](NC(=O)c4cc5cc(C(F)(F)P(=O)(O)O)ccc5s4)C(=O)N32)C1 (stereo partly drawn)
Response: 3 to 30 µM

Source of measurements: patent US20260306642A1
